B1: Catenin beta-1 (Mus musculus), Q02248 (parent)
chain: MATQADLMELDMAMEPDRKAAVSHWQQQSYLDSGIHSGATTTAPSLSGKGNPEEEDVDTSQVLYEWEQGFSQSFTQEQVADIDGQYAMTRAQRVRAAMFPETLDEGMQIPSTQFDAAHPTNVQRLAEPSQMLKHAVVNLINYQDDAELATRAIPELTKLLNDEDQVVVNKAAVMVHQLSKKEASRHAIMRSPQMVSAIVRTMQNTNDVETARCTAGTLHNLSHHREGLLAIFKSGGIPALVKMLGSPVDSVLFYAITTLHNLLLHQEGAKMAVRLAGGLQKMVALLNKTNVKFLAITTDCLQILAYGNQESKLIILASGGPQALVNIMRTYTYEKLLWTTSRVLKVLSVCSSNKPAIVEAGGMQALGLHLTDPSQRLVQNCLWTLRNLSDAATKQEGMEGLLGTLVQLLGSDDINVVTCAAGILSNLTCNNYKNKMMVCQVGGIEALVRTVLRAGDREDITEPAICALRHLTSRHQEAEMAQNAVRLHYGLPVVVKLLHPPSHWPLIKATVGLIRNLALCPANHAPLREQGAIPRLVQLLVRAHQDTQRRTSMGGTQQQFVEGVRMEEIVEGCTGALHILARDVHNRIVIRGLNTIPLFVQLLYSPIENIQRVAAGVLCELAQDKEAAEAIEAEGATAPLTELLHSRNEGVATYAAAVLFRMSEDKPQDYKKRLSVELTSSLFRTEPMAWNETADLGLDIGAQGEALGYRQDDPSYRSFHSGGYGQDALGMDPMMEHEMGGHHPGADYPVDGLPDLGHAQDLMDGLPPGDSNQLAWFDTDL

# Variants of: B1
# Assay setup: with MAPK9, P45984-1
Property: effect of a mutation on the interaction

• S246A = decreasing interaction
• S191A = disrupting interaction
• S191A;S246A;S605A = disrupting interaction
• S605A = decreasing interaction
